system: recombinant aminopeptidase A (UniProt P16406)
Sequence (P16406 1-945): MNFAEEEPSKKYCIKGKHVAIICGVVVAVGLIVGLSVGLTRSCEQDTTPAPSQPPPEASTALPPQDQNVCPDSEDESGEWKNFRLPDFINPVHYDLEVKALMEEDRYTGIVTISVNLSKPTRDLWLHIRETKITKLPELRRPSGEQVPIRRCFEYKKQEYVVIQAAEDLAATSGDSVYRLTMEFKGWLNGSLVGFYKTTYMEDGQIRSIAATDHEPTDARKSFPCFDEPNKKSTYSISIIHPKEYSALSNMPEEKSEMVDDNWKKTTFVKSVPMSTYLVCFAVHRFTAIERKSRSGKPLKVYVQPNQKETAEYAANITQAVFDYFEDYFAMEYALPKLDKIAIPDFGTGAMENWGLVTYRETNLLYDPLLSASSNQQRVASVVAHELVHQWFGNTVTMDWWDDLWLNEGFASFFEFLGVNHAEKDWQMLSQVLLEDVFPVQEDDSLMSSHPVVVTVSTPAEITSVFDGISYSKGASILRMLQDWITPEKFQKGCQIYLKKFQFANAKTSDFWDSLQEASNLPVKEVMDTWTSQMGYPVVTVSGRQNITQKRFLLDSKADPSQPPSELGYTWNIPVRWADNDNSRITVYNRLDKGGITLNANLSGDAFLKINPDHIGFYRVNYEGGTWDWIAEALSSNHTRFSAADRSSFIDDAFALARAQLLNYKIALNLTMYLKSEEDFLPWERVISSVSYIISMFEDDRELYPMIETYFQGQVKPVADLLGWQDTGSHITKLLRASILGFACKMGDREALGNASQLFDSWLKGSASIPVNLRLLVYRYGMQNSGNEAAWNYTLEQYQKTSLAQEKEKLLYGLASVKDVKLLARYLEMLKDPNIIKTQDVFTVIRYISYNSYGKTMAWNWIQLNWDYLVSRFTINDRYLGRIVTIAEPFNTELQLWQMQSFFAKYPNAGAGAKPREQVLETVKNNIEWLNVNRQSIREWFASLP
experiment_description: Determination of the inhibition constants with respect to APA (GluβNa hydrolysis, microplate assay)
measurement_conditions: recombinant APA; 200 μM GluβNa; pH 7.4 Tris-HCl; 4 mM CaCl2; 37° C.
experimental_readout: Ki (nM)
Answers are plain numbers, in nM.

# example entries with known answers
COc1ccc(CCC(S)C(N)CCS(=O)(=O)O)cc1 (stereo not drawn)
92
CC(C)CC(S)C(N)CCS(=O)(=O)O (stereo not drawn)
4000

Turning now to a further molecule:
IN: Provide recombinant aminopeptidase A (UniProt P16406) Ki reading for N[C@@H](CCS(=O)(=O)O)[C@H](S)CCc1ccccc1 .
OUT: 1040
